- Tested on: C. acutatum
- Measurement protocol: 96-well microtiter plate assay, fungal growth inhibition
- Type: cell-based, Colletotrichum acutatum
- Condition set: C. acutatum; 30 μM; 72 hrs
- Method: Pathogen production. […] Inoculum preparation. […] Conidia concentrations were determined photometrically, from a standard curve based on the percent of transmittance (% T) at 625 nm and suspensions were then adjusted with sterile distilled water to a concentration of 1.0×10^6 conidia/mL. Microtiter assay. […] Growth was then evaluated by measuring absorbance of each well at 620 nm using a microplate photometer (Packard Spectra Count, Packard Instrument Co., Downers Grove, Ill.). […]
Quantity name: Percent inhibition−Percent Stimulation±SEM
Number plus unit, in that order.

In the examples that follow, each entry is paired with its recorded Percent inhibition−Percent Stimulation±SEM.
[
  {
    "Molecule": "O=C1c2ccccc2-c2nccc3c(Br)cnc1c23 [4-bromosampangine]",
    "Recorded result": "−10.5 ± 6.7%"
  },
  {
    "Molecule": "COc1cnc2c3c(nccc13)-c1ccccc1C2=O [4-methoxysampangine]",
    "Recorded result": "−25.4 ± 5.4%"
  },
  {
    "Molecule": "N#CC(CCc1ccc(Cl)cc1)(Cn1cncn1)c1ccccc1 (centres unmarked) [Fenbucanazole]",
    "Recorded result": "−21.7 ± 5.8%"
  }
]

Task item: Field request: Percent inhibition−Percent Stimulation±SEM | item: CO/N=C(/C(=O)OC)c1ccccc1COc1ccccc1C [BAS 490]
Reply: −69.9 ± 2.6%

Task item: Field request: Percent inhibition−Percent Stimulation±SEM | item: O=C1c2ccccc2-c2nccc3c2c1nc1ccccc13 [Benzo[4,5]sampangine, benzo[4,5]sampangine]
Reply: −38.9 ± 5.2%
